The origin of these recorded values is patent US9765092B2.

Biological target: human TPH1 (Homo sapiens (Human))
Sequence (P17752 whole entry): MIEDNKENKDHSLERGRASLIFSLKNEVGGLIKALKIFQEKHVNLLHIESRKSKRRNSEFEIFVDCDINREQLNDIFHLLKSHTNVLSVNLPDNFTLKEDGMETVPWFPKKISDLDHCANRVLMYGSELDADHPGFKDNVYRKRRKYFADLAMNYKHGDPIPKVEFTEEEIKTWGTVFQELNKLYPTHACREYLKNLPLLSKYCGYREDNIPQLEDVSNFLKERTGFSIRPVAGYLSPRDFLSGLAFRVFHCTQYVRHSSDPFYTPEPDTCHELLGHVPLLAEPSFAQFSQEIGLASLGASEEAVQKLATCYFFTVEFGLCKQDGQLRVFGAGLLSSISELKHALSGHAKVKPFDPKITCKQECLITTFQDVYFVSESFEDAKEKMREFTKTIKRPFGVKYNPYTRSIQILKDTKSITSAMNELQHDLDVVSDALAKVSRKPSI
Test: Biochemical in vitro assay using fluorescence readout (TPH1 inhibition)
# pIC50 values compiled below
// pIC50: -log10(molar conc.)

Study these solved cases before continuing.
CCc1nc(N2CCCS2(=O)=O)ccc1OCC(=O)N1CCc2nc3sc(C(F)(F)F)nn3c2C1c1ccc(Cl)cc1F (stereo not drawn) [Example 5.1.3]: 8.00
Cc1ccc(C2c3c(nc4sc(C)nn34)CCN2C(=O)COc2ccc(NS(C)(=O)=O)nc2Cl)c(F)c1 (stereo not drawn) [Example 1.53.2]: 7.92

Turning now to a further molecule:
Q) What value of measured pIC50 is listed for Cc1nn2c3c(nc2s1)CCN(C(=O)COc1ccc(NS(C)(=O)=O)nc1Cl)C3c1ncccc1F (stereo not drawn) [Example 1.35.4] ?
A) 7.46
